biological target: malonyl-CoA decarboxylase prepared from rat heart (Rattus norvegicus, UniProt Q920F5); construct: from tissue; host or cells: rat heart; test: In vitro MCD inhibitory assay (spectrophotometric, 96 well); type: biochemical
Sequence (Q920F5 39-492): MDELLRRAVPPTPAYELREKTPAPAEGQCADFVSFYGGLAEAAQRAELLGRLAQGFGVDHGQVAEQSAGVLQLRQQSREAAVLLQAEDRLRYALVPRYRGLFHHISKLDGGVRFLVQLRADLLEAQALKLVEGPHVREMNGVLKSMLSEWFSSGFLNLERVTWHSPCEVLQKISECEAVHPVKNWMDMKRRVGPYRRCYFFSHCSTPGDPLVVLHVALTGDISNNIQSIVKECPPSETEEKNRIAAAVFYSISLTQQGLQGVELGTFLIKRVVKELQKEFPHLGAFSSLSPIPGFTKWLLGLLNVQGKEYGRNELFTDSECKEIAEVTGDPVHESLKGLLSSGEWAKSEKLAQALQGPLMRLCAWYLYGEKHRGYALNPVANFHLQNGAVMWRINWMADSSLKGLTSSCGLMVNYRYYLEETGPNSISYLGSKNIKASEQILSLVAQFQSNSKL
REPORTED PROPERTY: IC50 (nM)
Reply with just the number (in nM).

Input: Supply reported IC50 belonging to this compound: "CCOP(=O)(OCC)N(CC)c1ccc(C(O)(C(F)(F)F)C(F)(F)F)cc1"
Output: 90

----------
Molecular target: malonyl-CoA decarboxylase prepared from rat heart (Rattus norvegicus, UniProt Q920F5)
Construct: from tissue; host or cells: rat heart
Experiment: In vitro MCD inhibitory assay (spectrophotometric, 96 well)
Type: biochemical
Details: MCD from rat heart; concentration causing 50% inhibition of MCD activity; read-out: IC50 of the MCD inhibitors
Protocol: The following reagents are added into a 96 well titer plate: Tris-HCl buffer, 20 μL, DTE, 10 μL; I-malate, 20 μL; NAD, 10 μL; NADH, 25 μL; water, 80 μL; malic dehydrogenase, 5 μL. The contents are mixed and incubated for 2 min followed by the addition of 5 μL of citrate synthase.
REPORTED PROPERTY: IC50 (µM)
Reply with just the number (in µM).

1) CC(C)(C)OC(=O)CCNC(=O)C1CC(c2ccc(C(O)(C(F)(F)F)C(F)(F)F)cc2)=NO1 (stereo not drawn) ... 0.515

Input: Specify the recorded IC50 for "CCCCNC(=O)c1c(-c2ccccc2)nc(-c2ccc(C(O)(C(F)(F)F)C(F)(F)F)cc2)n1CCC" , system: malonyl-CoA decarboxylase prepared from rat heart (Rattus norvegicus, UniProt Q920F5).
Output: 0.354

Input: Specify the recorded IC50 for "CCCCN(C(=S)N(CC)CC)c1ccc(C(O)(C(F)(F)F)C(F)(F)F)cc1" , system: malonyl-CoA decarboxylase prepared from rat heart (Rattus norvegicus, UniProt Q920F5).
Output: 0.147

Input: Specify the recorded IC50 for "CCCCNC(=O)c1c(-c2ccccc2)nc(-c2ccc(C(O)(C(F)(F)F)C(F)(F)F)cc2)n1C(C)C" , system: malonyl-CoA decarboxylase prepared from rat heart (Rattus norvegicus, UniProt Q920F5).
Output: 0.044

Input: Specify the recorded IC50 for "N#CCCCCN(C(=S)N1CCOCC1)c1ccc(C(O)(C(F)(F)F)C(F)(F)F)cc1" , system: malonyl-CoA decarboxylase prepared from rat heart (Rattus norvegicus, UniProt Q920F5).
Output: 0.042

Input: Specify the recorded IC50 for "COC(=O)CCCCN(C(=S)N1CCOCC1)c1ccc(C(O)(C(F)(F)F)C(F)(F)F)cc1" , system: malonyl-CoA decarboxylase prepared from rat heart (Rattus norvegicus, UniProt Q920F5).
Output: 0.045

Input: Specify the recorded IC50 for "OC(c1ccc(N(Cc2ccc(C(F)(F)F)cc2)C(=S)N2CCOCC2)cc1)(C(F)(F)F)C(F)(F)F" , system: malonyl-CoA decarboxylase prepared from rat heart (Rattus norvegicus, UniProt Q920F5).
Output: 0.123

Input: Specify the recorded IC50 for "CCCCN(C(=N)N(CC)CC)c1ccc(C(O)(C(F)(F)F)C(F)(F)F)cc1.Cl" , system: malonyl-CoA decarboxylase prepared from rat heart (Rattus norvegicus, UniProt Q920F5).
Output: 0.164

Input: Specify the recorded IC50 for "CCCC(O)(CCC)c1ccc(C(O)(C(F)(F)F)C(F)(F)F)cc1" , system: malonyl-CoA decarboxylase prepared from rat heart (Rattus norvegicus, UniProt Q920F5).
Output: 0.127
